Test: The drug is tested on Anaerococcus hydrogenalis strain: DSM7454 for biotransformation. The drug concentrations were measured before and after a 12-h incubation by liquid-chromatography-coupled mass spectrometry (LC–MS)
Settings: 2 µM
READOUT KIND: Bacterial Biotransformation

Some compounds with recorded Bacterial Biotransformation:
>>> meas_value("CC(C)(C(=O)O)c1ccc(C(O)CCCN2CCC(C(O)(c3ccccc3)c3ccccc3)CC2)cc1 (centres undefined) [FEXOFENADINE]")
"Compound NOT metabolized"
>>> meas_value("C=CCc1ccccc1OCC(O)CNC(C)C (centres undefined)")
"Compound NOT metabolized"
>>> meas_value("Cc1ccccc1C(OCCN(C)C)c1ccccc1.O=C(O)CC(O)(CC(=O)O)C(=O)O (centres undefined) [ORPHENADRINE CITRATE]")
"Compound NOT metabolized"
>>> meas_value("O=C(Nc1ccccc1)OCC(CN1CCCCC1)OC(=O)Nc1ccccc1 (centres undefined)")
"Compound NOT metabolized"
>>> meas_value("CC(C)c1c(CN(C)C(C)Cc2ccccc2)n(C)n(-c2ccccc2)c1=O (centres undefined)")
"Compound metabolized"

Task item: Respond only with Bacterial Biotransformation recorded for Br.CN1CCC[C@@H]1Cc1c[nH]c2ccc(CCS(=O)(=O)c3ccccc3)cc12 [ELETRIPTAN HYDROBROMIDE]
Reply: Compound NOT metabolized

Task item: Respond only with Bacterial Biotransformation recorded for Nc1ccc(/N=N/c2ccccc2)c(N)n1
Reply: Compound metabolized

Task item: Respond only with Bacterial Biotransformation recorded for C#C[C@]1(O)CC[C@H]2[C@@H]3CCC4=CC(=O)CC[C@@H]4[C@H]3CC[C@@]21CC
Reply: Compound NOT metabolized

Task item: Respond only with Bacterial Biotransformation recorded for Cc1nc2n(c(=O)c1CCN1CCC(c3noc4cc(F)ccc34)CC1)CCCC2
Reply: Compound metabolized

====

Assay: The drug is tested on Bacteroides uniformis strain: ATCC8492 for biotransformation. The drug concentrations were measured before and after a 12-h incubation by liquid-chromatography-coupled mass spectrometry (LC–MS)
Conditions: 2 µM
READOUT KIND: Bacterial Biotransformation

Some molecules with recorded Bacterial Biotransformation:
>>> meas_value("CCCc1nc2c(C)cc(-c3nc4ccccc4n3C)cc2n1Cc1ccc(-c2ccccc2C(=O)O)cc1")
"Compound metabolized"
>>> meas_value("CCC(=O)NCC[C@@H]1CCc2ccc3c(c21)CCO3")
"Compound metabolized"
>>> meas_value("C[C@@H]1CC[C@H]2[C@@H](C)C(=O)O[C@@H]3O[C@@]4(C)CC[C@@H]1[C@]32OO4")
"Compound metabolized"
>>> meas_value("NC(CO)(CO)CO.O=C(c1ccccc1)c1ccc2n1CCC2C(=O)O (stereo not drawn)")
"Compound metabolized"
>>> meas_value("CCCCC(=O)N(Cc1ccc(-c2ccccc2-c2nnn[nH]2)cc1)[C@H](C(=O)O)C(C)C")
"Compound metabolized"

Task item: Respond only with Bacterial Biotransformation recorded for COc1cc2nc(N3CCN(C(=O)C4COc5ccccc5O4)CC3)nc(N)c2cc1OC.CS(=O)(=O)O (stereo not drawn) [DOXAZOSIN MESYLATE]
Reply: Compound metabolized

Task item: Respond only with Bacterial Biotransformation recorded for OC(CCN1CCCCC1)(c1ccccc1)C1CCCCC1 (stereo not drawn)
Reply: Compound metabolized

Task item: Respond only with Bacterial Biotransformation recorded for C[N+]12CCC(CC1)C(OC(=O)C(O)(c1ccccc1)c1ccccc1)C2.[Br-] (stereo not drawn) [CLIDINIUM BROMIDE]
Reply: Compound NOT metabolized

Task item: Respond only with Bacterial Biotransformation recorded for CCc1oc2ccccc2c1C(=O)c1cc(Br)c(O)c(Br)c1
Reply: Compound NOT metabolized

Task item: Respond only with Bacterial Biotransformation recorded for CC(C)(C)NCC(O)c1cc(Cl)c(N)c(Cl)c1 (stereo not drawn)
Reply: Compound NOT metabolized

Task item: Respond only with Bacterial Biotransformation recorded for C[C@]12C=CC(=O)C=C1CC[C@@H]1[C@@H]2C(=O)C[C@@]2(C)[C@H]1CC[C@]2(O)C(=O)CO
Reply: Compound NOT metabolized

Task item: Respond only with Bacterial Biotransformation recorded for COc1cc2nc(N3CCN(C(=O)c4ccco4)CC3)nc(N)c2cc1OC
Reply: Compound NOT metabolized

Task item: Respond only with Bacterial Biotransformation recorded for Br.CN1CCC[C@@H]1Cc1c[nH]c2ccc(CCS(=O)(=O)c3ccccc3)cc12 [ELETRIPTAN HYDROBROMIDE]
Reply: Compound NOT metabolized

Task item: Respond only with Bacterial Biotransformation recorded for CC(=O)O[C@]1(C(C)=O)CC[C@H]2[C@@H]3C=C(C)C4=CC(=O)CC[C@]4(C)[C@H]3CC[C@@]21C [MEGESTROL ACETATE]
Reply: Compound metabolized

Task item: Respond only with Bacterial Biotransformation recorded for CC(C)NCC(O)COc1ccc(CCOCC2CC2)cc1 (stereo not drawn)
Reply: Compound NOT metabolized

Task item: Respond only with Bacterial Biotransformation recorded for CCS(=O)(=O)CCn1c([N+](=O)[O-])cnc1C
Reply: Compound metabolized

Task item: Respond only with Bacterial Biotransformation recorded for COC(=O)C(c1ccccc1)C1CCCCN1 (stereo not drawn) [METHYLPHENIDATE]
Reply: Compound NOT metabolized

Task item: Respond only with Bacterial Biotransformation recorded for CCCN(CCC)CCc1cccc2c1CC(=O)N2
Reply: Compound NOT metabolized

Task item: Respond only with Bacterial Biotransformation recorded for CCCCC1=NC2(CCCC2)C(=O)N1Cc1ccc(-c2ccccc2-c2nnn[nH]2)cc1
Reply: Compound metabolized

Task item: Respond only with Bacterial Biotransformation recorded for CC(O)(CS(=O)(=O)c1ccc(F)cc1)C(=O)Nc1ccc(C#N)c(C(F)(F)F)c1 (stereo not drawn) [BICALUTAMIDE]
Reply: Compound NOT metabolized

Task item: Respond only with Bacterial Biotransformation recorded for COC(=O)[C@H]1[C@H]2C[C@@H]3c4[nH]c5cc(OC)ccc5c4CCN3C[C@H]2C[C@@H](OC(=O)c2cc(OC)c(OC)c(OC)c2)[C@@H]1OC
Reply: Compound NOT metabolized

Task item: Respond only with Bacterial Biotransformation recorded for CC[C@H](C)C(=O)O[C@H]1CCC=C2C=C[C@H](C)[C@H](CC[C@@H]3C[C@@H](O)CC(=O)O3)[C@H]21
Reply: Compound metabolized

Task item: Respond only with Bacterial Biotransformation recorded for CC(CCc1ccccc1)NCC(O)c1ccc(O)c(C(N)=O)c1 (stereo not drawn)
Reply: Compound NOT metabolized

Task item: Respond only with Bacterial Biotransformation recorded for Cc1ccccc1N1C(=O)c2cc(S(N)(=O)=O)c(Cl)cc2NC1C (stereo not drawn)
Reply: Compound NOT metabolized

Source listed as ChEMBL document CHEMBL5303573.
